The values you see were collected from patent US10363239B2.

System: mu opiate receptor (MOR)
Assay: MOR agonist activity using [35S]GTPγS binding assay in striatal membranes
Assay type: biochemical
Conditions: Series C-2; 1 μM compound, relative to DAMGO
EXPERIMENTAL_ENDPOINT: % DAMGO (1 μM) (%)
Give a bare numeral; the unit % is implied.

Query: Answer with the recorded % DAMGO (1 μM) of O=C1CN(Cc2ccccc2)C2(CCN(CC3CC3)CC2)N1 [Compound C0125M] only.
Reply: 78.6

Query: Answer with the recorded % DAMGO (1 μM) of CCOC(=O)CN1CCC2(CC1)OCCN2S(=O)(=O)c1ccc(C(C)=O)cc1 [Compound C0099M] only.
Reply: 88.0

Query: Answer with the recorded % DAMGO (1 μM) of COc1ccc(S(=O)(=O)N2CCC3(CC2)NCCC(=O)N3)cc1 [Compound C0142M] only.
Reply: 95.2

Query: Answer with the recorded % DAMGO (1 μM) of O=S(=O)(c1cccc2cccnc12)N1CCC2(CC1)OCCN2S(=O)(=O)c1cccc2cccnc12 [Compound C0143M] only.
Reply: 59.3

====

Tested on: mu opiate receptor (MOR)
Assay: MOR agonist activity using [35S]GTPγS binding assay in striatal membranes
Assay type: biochemical
Settings: Series C-1; 1 μM compound, relative to DAMGO
EXPERIMENTAL_ENDPOINT: % DAMGO (1 μM) (%)
Give a bare numeral; the unit % is implied.

Query: Answer with the recorded % DAMGO (1 μM) of `O=C(O)c1ccc(C(=O)N2CCC3(CC2)OCCN3S(=O)(=O)c2ccc(C(=O)O)cc2)cc1` only.
Reply: 87.8

Query: Answer with the recorded % DAMGO (1 μM) of `COc1ccc(S(=O)(=O)N2CCC3(CC2)OCCN3S(=O)(=O)c2ccc(OC)c(OC)c2)cc1OC` only.
Reply: 90.1

Query: Answer with the recorded % DAMGO (1 μM) of `CS(=O)(=O)c1ccc(S(=O)(=O)N2CCC3(CC2)OCCN3S(=O)(=O)c2ccc(S(C)(=O)=O)cc2)cc1` only.
Reply: 92.6

Query: Answer with the recorded % DAMGO (1 μM) of `COc1ccc(C(=O)N2CCC3(CC2)OCCN3S(=O)(=O)c2ccc(OC)cc2)cc1` only.
Reply: 95.5

Query: Answer with the recorded % DAMGO (1 μM) of `O=S(=O)(c1ccc(OC(F)(F)F)cc1)N1CCC2(CC1)OCCN2S(=O)(=O)c1ccc(OC(F)(F)F)cc1` only.
Reply: 73.8

Query: Answer with the recorded % DAMGO (1 μM) of O=S(=O)(c1ccc2ccccc2c1)N1CCC2(CC1)OCCN2S(=O)(=O)c1ccc2ccccc2c1 [Compound C0140M] only.
Reply: 106.5

Query: Answer with the recorded % DAMGO (1 μM) of `O=S(=O)(c1ccc(Br)cc1Br)N1CCC2(CC1)OCCN2S(=O)(=O)c1ccc(Br)cc1Br` only.
Reply: 95.9

====

Test system: mu opiate receptor (MOR)
Assay: MOR agonist activity using [35S]GTPγS binding assay in striatal membranes
Assay type: biochemical
Settings: Series B; 1 μM compound + β-FNA, relative to DAMGO + BFNA
EXPERIMENTAL_ENDPOINT: % DAMGO + BFNA (%)
Give a bare numeral; the unit % is implied.

Query: Answer with the recorded % DAMGO + BFNA of COc1ccc(C(=O)CC2c3c(cc4c(c3OC)OCO4)CC[N+]2(C)C)cc1OC (centres unmarked) [Compound B0026] only.
Reply: 55.3

Query: Answer with the recorded % DAMGO + BFNA of COc1c2c(cc3c1C(CC(=O)Cc1ccccc1C)N(C)CC3)OCO2 (centres unmarked) [Compound B0053] only.
Reply: 809.0

Query: Answer with the recorded % DAMGO + BFNA of COc1ccccc1CCC(=O)CC1c2c(cc3c(c2OC)OCO3)CC[N+]1(C)C (centres unmarked) [Compound B0045] only.
Reply: 257.1

Query: Answer with the recorded % DAMGO + BFNA of COc1c2c(cc3c1C(CC(=O)CCc1ccc(F)cc1)[N+](C)(C)CC3)OCO2 (centres unmarked) [Compound B0018] only.
Reply: 69.1

Query: Answer with the recorded % DAMGO + BFNA of COc1cc(OC)cc(C(=O)CC2c3c(cc4c(c3OC)OCO4)CC[N+]2(C)C)c1 (centres unmarked) [Compound B0035] only.
Reply: 142.4

Query: Answer with the recorded % DAMGO + BFNA of COc1c2c(cc3c1C(CC(=O)c1ccncc1)[N+](C)(C)CC3)OCO2 (centres unmarked) [Compound B0005] only.
Reply: 68.6

Query: Answer with the recorded % DAMGO + BFNA of COc1c2c(cc3c1C(CC(O)CCc1ccccc1)[N+](C)(C)CC3)OCO2 (centres unmarked) [Compound B0052] only.
Reply: 246.4

Query: Answer with the recorded % DAMGO + BFNA of COc1ccc(C(=O)CC2c3c(cc4c(c3OC)OCO4)CC[N+]2(C)C)c(F)c1 (centres unmarked) [Compound B0027] only.
Reply: 41.5
